assay: probe aNOTCH3 binding on compound microarray – biochemical, small-molecule microarray, 635/667 nm fluorescence, primary screen (AID 1120); settings: higher = more signal;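 also: probe is a biotin-tagged antibody raised against NOTCH3 rather than NOTCH3 protein; score merges spot fluorescence near 667 nm with spot signal to noise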
Task for the reader: assign each of the following compounds its reported composite z-score.
One number for each entry.

Compound	Reading
CC(c1ccccc1)C(O)C1C=CC2C(=O)N(Cc3ccccc3)C(=O)C2N1n1cnnc1 (centres undefined)	0.178

Each of the following entries comes with a recorded value; kindly state composite z-score for each.
1. CN(C)CCCCNC(=O)[C@@H]1C[C@@H]2C(=O)N[C@@H](CCCCN)C(=O)N2[C@@H]1c1cccc(OCCO)c1
2. O=C1c2ccccc2[C@@]2(Cc3ccccc3N(Cc3ccccc3)C2=O)[C@H](c2ccc(CO)cc2)N1Cc1ccccc1C(F)(F)F
3. C=CCC(OC(C)=O)[C@@H]1[C@@H](N(Cc2cc3ccccc3o2)C(=O)c2cccc3ccccc23)c2cc(OCCCO)ccc2N1C(=O)Cc1ccc(OC)cc1 (some centres undefined)
4. COc1ccc([Si](C)(C)[C@@H]2[C@@H](CC(=O)N3Cc4ccccc4C[C@H]3CO)O[C@]3(C(=O)N(Cc4cccc(N5C(=O)COc6ccccc65)c4)c4ccccc43)[C@H]2C)cc1

A.
1: -0.0918; 2: -0.128; 3: 0.0602; 4: 0.0905
